- Study system: T1, Canine IL-31RA ECD-10His (canine, biotin-labeled in the Octet assay (site not stated))
- T1 construct: The ELISA and Octet protocols say only 'IL-31RA' or 'canine IL-31RA'; also called cIL-31RA; canine IL-31 receptor alpha extracellular domain, HIS-tagged
- T1 chain: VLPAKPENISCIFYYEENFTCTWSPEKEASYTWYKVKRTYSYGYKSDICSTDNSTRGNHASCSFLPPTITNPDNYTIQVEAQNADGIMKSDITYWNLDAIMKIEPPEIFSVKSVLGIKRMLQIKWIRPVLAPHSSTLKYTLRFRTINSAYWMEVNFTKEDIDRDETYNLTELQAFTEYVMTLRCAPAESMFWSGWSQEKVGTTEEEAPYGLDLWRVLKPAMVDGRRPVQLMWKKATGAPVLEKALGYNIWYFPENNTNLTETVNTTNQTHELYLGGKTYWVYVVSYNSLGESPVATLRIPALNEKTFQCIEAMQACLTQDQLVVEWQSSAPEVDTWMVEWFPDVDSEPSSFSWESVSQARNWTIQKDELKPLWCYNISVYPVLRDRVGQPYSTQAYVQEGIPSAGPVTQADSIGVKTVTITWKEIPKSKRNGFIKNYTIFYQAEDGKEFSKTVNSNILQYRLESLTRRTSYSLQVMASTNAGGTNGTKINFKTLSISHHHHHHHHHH
- Test description: BLI (Octet HTX), biotin-labeled canine IL-31RA on SA biosensors, 1:1 fit
Assay metric: koff (s⁻¹)
Return type: number; implicit unit s⁻¹.

218D9 (antibody, V domains shown, Mouse monoclonal antibody from a hybridoma; also called mouse mAb 218D9) VH: QVTLKESGPGILQPSQTLSLTCSFSGFSLSTFGRGVGWIRQPSGKGLDWLTHIWWDDDKYYNPALKSRLTISKDTSKNQVFLKIANVDTADTATYYCARIAGGLRRAPYAMDSWGQGTSVTVSS VL: DIQMTQSPASLSVSVGETVTITCRASENIYSSLAWYQQKQGKSPQLLVYAATNLADGVPSRFSGSGSGTQYSLKINSLQSEDSGNYYCQHFRDTPPTFGGGTKLEIK : 4.63e-05

Continue with the next binder.
Requested field: koff. Item: 222E7 (antibody, V domains shown, Mouse monoclonal antibody from a hybridoma; also called mouse mAb 222E7) VH: EVQLQQSGPELVKPGSSVKIPCKASGYTFTDYNMDWVKQSHGKSLEWIGHINPNIGGTLYNQKFKGKATLSVDKSSSTAYMELRSLTSEDTAVYYCARWAQLQRQPYWYFDVWGPGTTVTVSS VL: DIKMTQSPSSMYASLGERVTITCKASQDINSYLNWFQQKPGKSPKTLIYRVNRLVDGVPSRFSGSGSGQDYSLTISSLEYEDMGIYYCLQYDEFPLTFGAGTKLELK 0.000282

The reported measurements were obtained from patent US20250340654A1.
